A collection of compounds and their measured IC50
# Target or test system: Angiotensin-converting enzyme (Oryctolagus cuniculus, UniProt P12822)
# Sequence (P12822 whole entry): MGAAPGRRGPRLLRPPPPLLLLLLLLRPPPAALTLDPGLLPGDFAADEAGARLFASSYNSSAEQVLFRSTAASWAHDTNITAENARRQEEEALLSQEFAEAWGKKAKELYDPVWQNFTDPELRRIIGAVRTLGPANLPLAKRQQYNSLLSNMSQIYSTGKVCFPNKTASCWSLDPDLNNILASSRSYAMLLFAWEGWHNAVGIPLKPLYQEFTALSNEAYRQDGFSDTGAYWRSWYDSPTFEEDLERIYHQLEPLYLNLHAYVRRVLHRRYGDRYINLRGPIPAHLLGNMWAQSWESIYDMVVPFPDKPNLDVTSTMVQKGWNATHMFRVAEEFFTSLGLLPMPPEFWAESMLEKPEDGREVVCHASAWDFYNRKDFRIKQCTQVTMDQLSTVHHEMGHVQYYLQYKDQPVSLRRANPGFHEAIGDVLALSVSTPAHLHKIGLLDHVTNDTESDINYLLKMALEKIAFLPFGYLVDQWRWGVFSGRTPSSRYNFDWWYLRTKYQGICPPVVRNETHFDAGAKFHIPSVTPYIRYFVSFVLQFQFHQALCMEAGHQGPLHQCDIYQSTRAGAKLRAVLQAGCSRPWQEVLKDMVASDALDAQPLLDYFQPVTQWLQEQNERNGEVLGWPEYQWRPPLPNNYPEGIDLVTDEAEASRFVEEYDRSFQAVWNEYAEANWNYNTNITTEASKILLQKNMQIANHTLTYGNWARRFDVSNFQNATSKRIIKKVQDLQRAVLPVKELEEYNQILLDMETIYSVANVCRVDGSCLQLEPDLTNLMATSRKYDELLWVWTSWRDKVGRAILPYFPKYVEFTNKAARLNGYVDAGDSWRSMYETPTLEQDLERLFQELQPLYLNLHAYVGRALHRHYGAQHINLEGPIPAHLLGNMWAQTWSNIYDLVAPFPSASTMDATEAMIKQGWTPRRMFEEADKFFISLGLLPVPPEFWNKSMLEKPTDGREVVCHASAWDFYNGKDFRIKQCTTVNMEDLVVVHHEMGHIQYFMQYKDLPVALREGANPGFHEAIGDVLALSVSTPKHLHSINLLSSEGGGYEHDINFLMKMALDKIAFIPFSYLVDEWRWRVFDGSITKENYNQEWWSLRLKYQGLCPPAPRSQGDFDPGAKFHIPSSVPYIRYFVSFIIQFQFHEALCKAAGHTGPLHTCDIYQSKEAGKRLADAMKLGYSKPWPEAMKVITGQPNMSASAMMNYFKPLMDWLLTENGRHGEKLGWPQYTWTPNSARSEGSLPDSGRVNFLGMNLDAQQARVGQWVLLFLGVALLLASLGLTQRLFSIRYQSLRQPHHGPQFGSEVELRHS
# Method summary: In vitro inhibition of angiotensin I converting enzyme (ACE)
Give the quantity in nM, number only.

Known IC50 results, listed for orientation:
In [3]: df
Out[3]:
                                   compound  unit_spec  test_result
0  CC(C)C(CCC(=O)O)C(=O)N1c2ccccc2CC1C(=O)O (stereo not given)         nM           50
1  CC(CCC(N)=O)C(=O)N1c2ccccc2CC1C(=O)O (stereo not given)         nM        16000
2  CCOC(=O)C1Cc2ccccc2N1C(=O)C(C)CC(C)C(=O)O (stereo not given)         nM         8800
3  CC(CC(=O)O)C(=O)N1c2ccccc2C[C@H]1C(=O)O (stereo not given in full)         nM          300
4  CC(C)(CC(=O)O)CC(=O)N1c2ccccc2CC1C(=O)O (stereo not given)         nM       290000

Exam item: Any idea what its IC50 is? The compound is CCOC(=O)C1Cc2ccccc2N1C(=O)CCC(C)C(=O)O (stereo not given)
Marked response: 170000

Exam item: Look at this compound and give its reported IC50. CCOC(=O)[C@H](C)C[C@@H](C)C(=O)N1c2ccccc2CC1C(=O)O (stereo not given in full)
Marked response: 5500

Exam item: Form field: reported IC50 of CC(CC(C)C(=O)N1c2ccccc2CC1C(=O)O)C(=O)O (stereo in doubt; 6m)
Marked response: 190

Exam item: Value lookup for IC50; key = C[C@H](C[C@@H](C)C(=O)N1c2ccc(Cl)cc2CC1C(=O)O)C(=O)O (stereo not given in full)
Marked response: 440

Exam item: Which value of IC50 has been reported for C[C@H](C[C@@H](CCc1ccccc1)C(=O)O)C(=O)N1c2ccccc2CC1C(=O)O (stereo not given in full) in the records?
Marked response: 4.8
